tested on: HCMV infection of ARPE19 epithelial cells; test: Peptide blocking assay, infection of ARPE19 cells (percent GFP or IE positive cells); type: cell-based, Human cytomegalovirus (HCMV); settings: short peptides 150 uM preincubated with TB40E, ARPE19, MOI=2.0, 2 dpi
measurement name: ability to inhibit HCMV infection (percent GFP positive cells)

item_sequence="FLLMEFSGIWELQ (OR14I1 peptide 10-22aa)" result="best activity"
item_sequence="LLMEFSGIWELQV (OR14I1 peptide 11-23aa)" result="best activity"
item_sequence="LMEFSGIWELQVL (OR14I1 peptide) [Peptide 12-24]" result="best activity"
